Target Or System: MAGI2_4, Q86UL8
Sequence (Q86UL8 772-865): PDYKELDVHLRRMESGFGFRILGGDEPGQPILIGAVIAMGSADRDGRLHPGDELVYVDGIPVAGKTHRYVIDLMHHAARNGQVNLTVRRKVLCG
Run Description: holdup assay
Design: key: below the threshold = too weak to quantify, mostly under pKd 3.1 to 4
Reported Conditions: plain residues with an end cap or a label only (N-terminal biotin on a linker: ado-ado)
Attribute Measured: pKd

INSERT INTO results (binder, attribute_measured, value) VALUES
  ('QSGLYESEEL [MYOT, Q9UBF9]', 'pKd', 'below the threshold'),
  ('TNSRHGETTV [FZD2, Q14332]', 'pKd', 4.1),
  ('SPDRDRESIV [SCN5A, Q14524]', 'pKd', 3.63),
  ('SRSVVESDEL [MYPN, Q86TC9]', 'pKd', 'below the threshold'),
  ('EKCGKEFSEF [PRKACA, P17612]', 'pKd', 3.62),
  ('AAVENKVTDL [PLXNB1, O43157]', 'pKd', 'below the threshold'),
  ('PYPTADHMLA [JUP, P14923]', 'pKd', 'below the threshold'),
  ('DDASLPVSDV [PLEKHA1, Q9HB21]', 'pKd', 'below the threshold');
